test system: UACC-257 melanoma; assay: NCI tumour cell line growth inhibition, 48 h
Assignment: determine reported TGI for the given compounds.

// solved cases for TGI follow
> print(dat)
                                   compound      system.tested  readout.value
1  CCC(c1cccc(O)c1)C(CC)c1cccc(O)c1 (stereo unspecified)  UACC-257 melanoma        26.4 µM
2  C/C(O)=C/c1nc2ccc([N+](=O)[O-])cc2nc1/C=C(/C)O  UACC-257 melanoma        72.7 µM
3  CCN(CC)CCCC(C)Nc1c2ccc(C)cc2nc2ccc(OC)cc12 (stereo unspecified)  UACC-257 melanoma        3.05 µM
4      C#CCn1c(=O)c(C#N)c(O)c2cc3ccccc3nc21  UACC-257 melanoma       > 100 µM
5  Cc1c2c(OCCCCN3CCN(c4ncccn4)CC3)nn(C)c(=O)c2c(C)n1-c1ccccc1  UACC-257 melanoma        33.5 µM

Query :: For the compound Cc1nn(-c2ccccc2)c(-c2ccccc2[N+](=O)[O-])c1CC#N , what TGI is on record?
Result :: > 100 µM

* * *

system: A498 renal; assay: NCI tumour cell line growth inhibition, 48 h
endpoint.name: TGI

// solved cases for TGI follow
> print(dat)
                                   compound  readout.value
1  C[C@]12CC[C@H](O)CC1=CC[C@@H]1[C@@H]2CC[C@]2(C)/C(=N/OCCN3CCCC3)CC[C@@H]12        29.8 µM
2  O=C1c2cccc3cccc(c23)C(=O)N1CCCNOCCONCCCN1C(=O)c2cccc3cccc(c23)C1=O       > 100 µM
3                    Cc1cc(=O)oc2cc(O)ccc12       > 100 µM

Parameter requested: TGI. Apply to each item below.
1. O=c1ccc(=O)c2c(=O)c3ccccc3c(=O)c1=2
2. Cc1c2ccc(N(C)c3ccnc(Nc4cccc(S(N)(=O)=O)c4)n3)cc2nn1C
3. COc1cccc(-c2cc(=O)c3ccc(C)nc3[nH]2)c1
4. NNc1nncn1N
5. C[n+]1c2ccccc2c(C(=O)Nc2ccc(S(=O)(=O)N=C(N)N)cc2)c2ccccc21
6. CSC1=NS(=O)(=O)c2cc(C(=O)NN(C)C(=O)c3cc4c(cc3Cl)SC(SC)=NS4(=O)=O)c(Cl)cc2S1
7. CNC(=S)N/N=C/c1ccc([N+](=O)[O-])s1

Result ::
1. > 100 µM
2. > 17.9 µM
3. 2.34 µM
4. > 100 µM
5. > 100 µM
6. > 10 µM
7. > 10 µM

Parameter requested: TGI. Apply to each item below.
1. Cn1nc(S(N)(=O)=O)s/c1=N/C(N)=S
2. CCOC(=O)c1cc(/C=C/C(C)=C/C(=O)OC)n(C)c1C
3. COc1ccc(C(=O)N2c3ccccc3Sc3ccccc32)c(C(F)(F)F)c1
4. COC1CC(OC(=O)c2ccccc2)C(OC(=O)c2ccccc2)C(C)O1 (configuration not stated)
5. CC(C)Oc1cc(O)c2c(c1)OCC=C2CCC(=O)O

Result ::
1. > 100 µM
2. > 100 µM
3. 0.877 µM
4. > 100 µM
5. 56.6 µM

Parameter requested: TGI. Apply to each item below.
1. COC(=O)CCC1=C(C)/C(=C/c2[nH]c(-c3ccc[nH]3)cc2OC)N=C1C
2. CCOc1c(Cl)cc(CNC(C)C(O)c2ccccc2)cc1OC (configuration not stated)

Result ::
["18.5 µM", "26.4 µM"]
